- Tested on: S. cerevisiae Burl-1 ts mutant growth, BacTiter-Glo, 38.5C 24 h
- RUN_DESCRIPTION: restored growth of temperature-sensitive Burl-1 yeast – whole organism, S. cerevisiae, Burl-1 ts mutant, luminescence, counter-screen for SUMOylation pathway inhibitor project, dose response (AID 463199)
Active and inactive are the calls of the source.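 How the source made its calls: active means AC50, the dose giving half-maximal effect, exceeds a fixed cutoff for a compound that rescues yeast growth under heat; inactive means the rest, inconclusive results apart.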
Outcome codes: True = active, False = inactive

O=C(c1ccc2c(=O)n(Cc3ccccc3Cl)c(=S)[nH]c2c1)N1CCOCC1
False
CC1=C(C(=O)N2CCOCC2)C(c2ccc(O)cc2)NC(=S)N1 (stereo not drawn)
False
CN(C)/C=N/NC(=O)c1ccccc1
False
O=C(O)c1cc(Oc2ccc(C(F)(F)F)cc2Cl)ccc1[N+](=O)[O-]
False
C=C1C(O)[C@@H]2O[C@]3(CC[C@H](/C=C/C(C)[C@@H]4CC(C)=CC5(O[C@H](C[C@@](C)(O)C(=O)O)CCC5O)O4)O3)CC[C@H]2O[C@@H]1C(O)CC(C)[C@H]1OC2(CCCCO2)CCC1C (stereo partly drawn)
True
O=C(c1ccc(-c2ccccc2)cc1)C1CCCN(Cc2ccncc2)C1 (stereo not drawn)
False
CC1(C)C2CC[C@]3(C)C(CC=C4[C@@H]5C[C@@](C)(CO)[C@@H](O)C[C@]56C[C@@H](OC6=O)[C@]43C)[C@@]2(C)CC[C@@H]1O (stereo partly drawn)
False
COc1ccc(/C=N\NC(=O)c2cc(OCC(F)(F)F)ccc2OCC(F)(F)F)cc1
False
